- protocol.details: self-splicing fitness, log relative to wild type (ln ratio); higher = more splicing; Tetrahymena group I intron in knt gene, E. coli kanamycin selection, DiMSum; sequences stand for … in CUCUCU…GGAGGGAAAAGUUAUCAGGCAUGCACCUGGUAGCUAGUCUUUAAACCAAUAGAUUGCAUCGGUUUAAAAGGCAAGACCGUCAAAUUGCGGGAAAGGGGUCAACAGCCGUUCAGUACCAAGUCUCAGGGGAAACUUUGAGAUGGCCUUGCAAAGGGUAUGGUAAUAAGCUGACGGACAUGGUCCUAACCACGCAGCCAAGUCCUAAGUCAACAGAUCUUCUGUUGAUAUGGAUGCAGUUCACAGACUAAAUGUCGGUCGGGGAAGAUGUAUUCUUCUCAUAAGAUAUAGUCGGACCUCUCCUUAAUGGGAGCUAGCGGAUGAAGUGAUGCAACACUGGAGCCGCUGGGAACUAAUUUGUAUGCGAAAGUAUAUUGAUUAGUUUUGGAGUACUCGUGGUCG;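 note: selection with 25 µg/mL kanamycin versus none on LB agar overnight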
- test.context: 37 °C
Some sequences, each annotated with its measured self-splicing fitness (ln).
measured.property: self-splicing fitness (ln)

>  <record.sequence>
CUGCAGCAAUAUUACGAGUC

>  <test.result>
-2.59

$$$$
>  <record.sequence>
GGCCAGCAAUAUUACGAGUG

>  <test.result>
-1.14

$$$$
>  <record.sequence>
CUCAAGCAAUAUUACGGAGC

>  <test.result>
-2.54

$$$$
>  <record.sequence>
CGAUAGCAAUAUUACGGGAC

>  <test.result>
-2.42

$$$$
>  <record.sequence>
GCCGAGCAAUAUUACGUGCG

>  <test.result>
-1.28

$$$$
>  <record.sequence>
AAGCAGCAAUAUUACGUCCU

>  <test.result>
-0.442

$$$$
>  <record.sequence>
UAGAAGCAAUAUUACGAAGC

>  <test.result>
-2.2

$$$$
>  <record.sequence>
UUGCAGCAAUAUUACGACGU

>  <test.result>
-1.11

$$$$
>  <record.sequence>
GGUGAGCAAUAUUACGCUGG

>  <test.result>
-1.12

$$$$
>  <record.sequence>
GCAAAGCAAUAUUACGAACA

>  <test.result>
-1.73

$$$$
>  <record.sequence>
CAUUAGCAAUAUUACGUGUA

>  <test.result>
-1.57

$$$$
>  <record.sequence>
ACCGAGCAAUAUUACGAUUG

>  <test.result>
-2.02

$$$$
>  <record.sequence>
UCAGAGCAAUAUUACGGUUC

>  <test.result>
-1.84

$$$$
>  <record.sequence>
GUGAAGCAAUAUUACGGCUC

>  <test.result>
-0.646

$$$$
>  <record.sequence>
UCAGAGCAAUAUUACGCUAA

>  <test.result>
1.19

$$$$
>  <record.sequence>
CACCAGCAAUAUUACGAACC

>  <test.result>
-0.707

$$$$
